Biological target: T1, human NMUR1 (human, UniProt Q9HB89 1-426)
T1 construct: whole, on cells; Stably expressed in cells (FLIPR); also called hNMUR1; human R1
T1 sequence (looked up): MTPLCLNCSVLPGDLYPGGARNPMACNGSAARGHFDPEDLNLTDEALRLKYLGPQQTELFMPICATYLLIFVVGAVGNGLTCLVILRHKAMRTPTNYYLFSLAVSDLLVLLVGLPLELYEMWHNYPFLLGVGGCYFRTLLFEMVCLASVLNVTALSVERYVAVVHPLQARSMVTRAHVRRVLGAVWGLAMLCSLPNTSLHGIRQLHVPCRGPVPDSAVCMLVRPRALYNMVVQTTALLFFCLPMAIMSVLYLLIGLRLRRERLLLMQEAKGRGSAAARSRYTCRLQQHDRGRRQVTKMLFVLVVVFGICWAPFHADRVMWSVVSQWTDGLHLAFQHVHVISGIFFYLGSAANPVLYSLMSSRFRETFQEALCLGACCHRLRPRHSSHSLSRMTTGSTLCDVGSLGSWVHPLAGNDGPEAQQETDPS
Experiment: 125I-hNMU-25 displacement, HEK cell membranes
Protocol: Confluent cell monolayers expressing NMU receptors (the HEK cells described above) were harvested with phosphate buffered saline, collected by centrifugation, and resuspended in membrane buffer (50 mM TrisCl pH 7.4, 5 mM MgCl₂, 1× Protease Inhibitor Cocktail, 10 μM phosphoramidon). After the cell pellet was homogenized, the solution was centrifuged at 18,000 rpm for 20 minutes at 4° C. […]
Non-standard residues stand in square brackets, D forms with d. No end group written: not given here.

{"Binder": "Ac-F[dL]WRPRN-NH2 (SMILES CC(=O)N[C@@H](Cc1ccccc1)C(=O)N[C@H](CC(C)C)C(=O)N[C@@H](Cc1c[nH]c2ccccc12)C(=O)N[C@@H](CCCNC(=N)N)C(=O)N1CCC[C@H]1C(=O)N[C@@H](CCCNC(=N)N)C(=O)N[C@@H](CC(N)=O)C(N)=O) [neuromedin U receptor agonist E]", "IC50 / nM": 75}
{"Binder": "FRVDEEFQSPFASQSRGYF[dL]WRPRN-NH2 (not fully specified) [neuromedin U receptor agonist H]", "IC50 / nM": 1.1}
{"Binder": "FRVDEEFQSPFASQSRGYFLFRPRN-NH2 (also called hNMU-25; native hNMU) [human NMU-25]", "IC50 / nM": 0.47}
{"Binder": "FRVDEEFQSPFASQSRGYFWRPRN-NH2 [neuromedin U receptor agonist G]", "IC50 / nM": 2.1}
{"Binder": "YFGWRPRN-NH2 [neuromedin U receptor agonist C]", "IC50 / nM": 0.42}
{"Binder": "YF[dA]WRPRN-NH2 (N-terminus assumed; SMILES C[C@@H](NC(=O)[C@H](Cc1ccccc1)NC(=O)[C@@H](N)Cc1ccc(O)cc1)C(=O)N[C@@H](Cc1c[nH]c2ccccc12)C(=O)N[C@@H](CCCNC(=N)N)C(=O)N1CCC[C@H]1C(=O)N[C@@H](CCCNC(=N)N)C(=O)N[C@@H](CC(N)=O)C(N)=O) [neuromedin U receptor agonist D]", "IC50 / nM": 2.6}
